These entries and their values trace back to patent US8318726B2.

test system: duplex-form calf thymus DNA (CT-DNA); experiment: Thermal denaturation studies with calf thymus DNA; type: binding; conditions: [PBD]:[DNA] molar ratio 1:5; CT-DNA 100 μM, ligand 20 μM; pH 7.00; 18 h incubation at 37° C.
assay_readout: ΔTm, drug-induced shift in DNA melting temperature (°C)
The response must be a number in °C with no trailing unit.

COc1cc(C=C2c3ccccc3C(=O)c3ccccc32)ccc1O [2a, reference compound]
0.8
COc1cc(C=C2c3ccccc3C(=O)c3ccccc32)ccc1OCCCOc1cc2c(cc1OC)C(=O)N1CCC[C@H]1C=N2 [5b]
7.5
COc1cc(C=C2c3ccccc3C(=O)c3ccccc32)ccc1OCCCCCOc1cc2c(cc1OC)C(=O)N1CCC[C@H]1C=N2 [5d]
8.9

Kindly review the next compound as well.
// ΔTm, drug-induced shift in DNA melting temperature lookup, compound = COc1cc(C=C2c3ccccc3C(=O)c3ccccc32)ccc1OCCCCOc1cc2c(cc1OC)C(=O)N1CCC[C@H]1C=N2 [5c] , result: 9.3
